# method notes: log P determination by HPLC on reversed-phase column (C 18), EEC directive 79/831 Annex V.A8
# Type: physicochemical
# measurement conditions: reversed-phase HPLC column (C 18), acidic range pH 2.3, 43° C.
quantity name: chromatographic logP
Numbers only.

Quick one: chromatographic logP of CC(CC(C)(C)C)c1ccccc1NC(=O)c1ccccc1C(F)F (stereo not shown) ?
4.38
